# tested_target: ALK1 (Homo sapiens)
# Sequence (P37023 22-503): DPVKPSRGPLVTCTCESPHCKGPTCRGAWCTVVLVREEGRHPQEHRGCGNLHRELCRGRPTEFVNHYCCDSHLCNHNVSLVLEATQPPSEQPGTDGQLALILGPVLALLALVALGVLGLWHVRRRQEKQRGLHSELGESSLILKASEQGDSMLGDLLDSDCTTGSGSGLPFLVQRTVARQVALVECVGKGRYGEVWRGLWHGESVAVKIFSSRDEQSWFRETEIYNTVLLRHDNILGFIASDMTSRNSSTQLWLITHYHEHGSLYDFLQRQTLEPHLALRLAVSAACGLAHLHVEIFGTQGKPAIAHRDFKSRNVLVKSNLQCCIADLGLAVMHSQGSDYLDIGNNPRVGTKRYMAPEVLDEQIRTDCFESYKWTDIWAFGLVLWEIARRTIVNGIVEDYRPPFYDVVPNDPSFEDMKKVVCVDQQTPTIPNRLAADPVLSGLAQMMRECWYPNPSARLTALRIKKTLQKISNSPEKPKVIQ
# assay_comment: TR-FRET enzymatic ALK kinase assay, ALK1
measurement_name: pIC50
Value format note: pIC50 is -log10 of concentration (mol/L); just state the number.

Please fill in: pIC50 reported for C[C@@H]1CNC[C@H](C)N1c1ccc(-c2cnc3c(-c4ccc(F)c(-c5nnn[nH]5)c4)cnn3c2)cc1 = 6.92

Per the records, this compound ( CC(C)(CN1CCCCC1)Oc1ccc(-c2cnc3c(-c4cccc(S(C)(=O)=O)c4)cnn3c2)cc1 ) has pIC50 equal to 7.17

Just so you know, measured pIC50 for C[C@@H](O)c1cccc(-c2cnn3cc(-c4ccc(CCN5CCCC(O)C5)cc4)cnc23)c1 (stereo partly shown) came out at 6.12

Continuing:
Quick note, pIC50 for C[C@@H]1CNC[C@H](C)N1c1ccc(-c2cnc3c(-c4cccc(CO)c4)cnn3c2)cc1 landed at 6.82

###

# tested_target: ALK3 (Homo sapiens)
# Sequence (P36894 24-532): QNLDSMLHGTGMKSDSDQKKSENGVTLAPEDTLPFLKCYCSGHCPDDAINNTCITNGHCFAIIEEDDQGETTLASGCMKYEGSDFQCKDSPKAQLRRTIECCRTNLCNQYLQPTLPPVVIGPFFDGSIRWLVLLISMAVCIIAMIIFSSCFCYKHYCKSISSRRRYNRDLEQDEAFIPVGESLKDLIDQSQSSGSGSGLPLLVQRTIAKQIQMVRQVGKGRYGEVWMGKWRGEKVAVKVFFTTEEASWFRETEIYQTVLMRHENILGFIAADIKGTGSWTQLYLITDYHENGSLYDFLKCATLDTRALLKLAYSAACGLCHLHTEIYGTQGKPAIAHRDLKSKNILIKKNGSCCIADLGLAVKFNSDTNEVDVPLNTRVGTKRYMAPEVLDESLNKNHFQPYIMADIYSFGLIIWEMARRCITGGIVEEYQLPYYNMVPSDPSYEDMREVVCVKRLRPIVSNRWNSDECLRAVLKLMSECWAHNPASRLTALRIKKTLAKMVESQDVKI
# assay_comment: TR-FRET enzymatic ALK kinase assay, ALK3
A collection of compounds and their measured IC50
Numeric answer only, unit nM assumed.

Illustrative cases are given below, each with its answer.
Input CC1(c2ccc(-c3cnc4c(-c5cccc(S(C)(=O)=O)c5)cnn4c3)cc2)CCNCC1 [Compound 115] . Output IC50: 1700

The recorded IC50 for entry C[C@@H]1CNC[C@H](C)N1c1ccc(-c2cnc3c(-c4cccc5c(CO)cccc45)cnn3c2)cc1 [Compound 20] equals 240

// next item, IC50 requested
The compound identified as CC(O)c1cccc(-c2cnn3cc(-c4ccc(CCN5CCNCC5)cc4)cnc23)c1 (stereo not shown) [Compound 171] registered its IC50 at 2000

###

# tested_target: UniProt:O00238
# Sequence (O00238 14-502): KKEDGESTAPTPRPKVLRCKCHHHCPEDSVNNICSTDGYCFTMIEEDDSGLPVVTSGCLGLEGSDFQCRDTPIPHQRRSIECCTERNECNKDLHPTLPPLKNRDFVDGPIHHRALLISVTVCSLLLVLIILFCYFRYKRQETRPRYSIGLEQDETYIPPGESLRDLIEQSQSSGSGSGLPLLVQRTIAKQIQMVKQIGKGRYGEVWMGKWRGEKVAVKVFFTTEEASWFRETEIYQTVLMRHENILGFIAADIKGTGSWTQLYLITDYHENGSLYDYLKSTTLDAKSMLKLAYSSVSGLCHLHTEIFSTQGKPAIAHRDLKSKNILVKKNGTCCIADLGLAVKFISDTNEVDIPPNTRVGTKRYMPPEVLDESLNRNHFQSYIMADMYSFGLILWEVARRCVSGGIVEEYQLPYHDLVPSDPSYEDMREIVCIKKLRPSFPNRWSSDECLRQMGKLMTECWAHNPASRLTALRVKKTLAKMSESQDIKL
# assay_comment: TR-FRET enzymatic ALK kinase assay, ALK6
pIC50: −log10 of the molar value.
measurement_name: pIC50

Take a look at these entries with their results.
Field pIC50 (UniProt:O00238), entry C[C@@H](O)c1cccc(-c2cnn3cc(-c4ccc(OCCN5CCCC5)cc4)cnc23)c1 : < 5.00

Reported pIC50 (UniProt:O00238) for entry C[C@@H]1CNC[C@H](C)N1c1ccc(-c2cnc3c(-c4cccc(CCO)c4)cnn3c2)cc1 is < 5.00

The reported pIC50 value, UniProt:O00238, for CC(C)S(=O)(=O)c1cccc(-c2cnn3cc(-c4ccc(N5[C@H](C)CNC[C@@H]5C)cc4)cnc23)c1 reads 5.20

Further cases:
Sample CC(O)c1cccc(-c2cnn3cc(-c4ccc(C5CCCNC5)cc4)cnc23)c1 (stereo not drawn) , system: UniProt:O00238. Its pIC50 is < 5.00

The reported UniProt:O00238 pIC50 of COc1ccc2ccccc2c1-c1cnn2cc(-c3ccc(N4[C@H](C)CNC[C@@H]4C)cc3)cnc12 is 4.76

###

# tested_target: ALK2 (Homo sapiens, UniProt Q04771)
# Sequence (Q04771 21-509): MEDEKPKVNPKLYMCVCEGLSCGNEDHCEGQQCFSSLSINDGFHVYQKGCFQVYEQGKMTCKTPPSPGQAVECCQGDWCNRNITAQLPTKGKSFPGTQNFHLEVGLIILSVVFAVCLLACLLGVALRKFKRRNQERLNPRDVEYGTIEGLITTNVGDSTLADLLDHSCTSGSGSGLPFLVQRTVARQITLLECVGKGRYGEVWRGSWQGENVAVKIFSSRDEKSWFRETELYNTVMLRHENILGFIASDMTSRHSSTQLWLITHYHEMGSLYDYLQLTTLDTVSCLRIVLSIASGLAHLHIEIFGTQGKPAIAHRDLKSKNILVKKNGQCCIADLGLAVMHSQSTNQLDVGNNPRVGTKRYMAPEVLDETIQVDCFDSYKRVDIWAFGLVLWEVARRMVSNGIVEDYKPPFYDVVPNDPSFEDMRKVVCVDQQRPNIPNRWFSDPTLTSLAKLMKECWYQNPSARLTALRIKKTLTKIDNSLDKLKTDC
# assay_comment: TR-FRET enzymatic ALK kinase assay, ALK2
Each record here notes measured pIC50.
Field pIC50 (float): negative decimal logarithm of the concentration in molar.

Worked set:
For C[C@H](O)c1cccc(-c2cnn3cc(-c4ccc(OC5(CN6CCCC6)CC5)cc4)cnc23)c1 the compound record lists pIC50 as 7.52

In plain terms, C[C@@H]1CNC[C@H](C)N1c1ccc(-c2cnc3c(-c4ccc(C(=O)C(F)(F)F)c5ccccc45)cnn3c2)cc1 has a documented pIC50 of 6.69

Value of pIC50 reported for the compound NC(c1cccc(-c2cnn3cc(-c4ccc(OCCN5CCCC5)cc4)cnc23)c1)C(F)(F)F (stereo not shown) is 6.82

Please examine the following record next.
response.value for CC(N)c1ccc(-c2cnc3c(-c4cccc(C(C)O)c4)cnn3c2)cc1 (stereo not shown) (field: pIC50) = 7.14
